Biological target: T1, Human CD137 ECD (human)
T1 construct: also called 4-1BB
T1 sequence (chain, as listed by the source limits assumed): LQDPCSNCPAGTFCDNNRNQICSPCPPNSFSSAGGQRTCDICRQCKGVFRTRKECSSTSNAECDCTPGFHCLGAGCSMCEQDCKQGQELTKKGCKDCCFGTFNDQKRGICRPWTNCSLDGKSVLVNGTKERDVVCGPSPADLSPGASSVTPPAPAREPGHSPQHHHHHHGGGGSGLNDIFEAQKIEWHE
Experiment: SPR, vs parent H183/L072
Value kind: fold change of affinity (fold)
Just the number in fold, nothing appended.

binder="dBBDu183H K64S / dBBDu072L (antibody, name in Kabat numbering, V domains shown, as m1, one VH change) VH: QVQLVESGGGLVQPGRSLRLSCAASGFTFSNAWMHWVRQAPGKGLEWVAQIKDKGNAYAAYYAPSVSGRFTISRDDSKNSIYLQMNSLKTEDTAVYYCHYVHYASASTVLPAFGVDAWGQGTTVTVSS VL: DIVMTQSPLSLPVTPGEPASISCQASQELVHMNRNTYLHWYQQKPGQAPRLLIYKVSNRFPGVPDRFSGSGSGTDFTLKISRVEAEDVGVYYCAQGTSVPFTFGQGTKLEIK" value_kind="fold change of affinity" unit_abbreviation=fold readout_number=1.2

Proceeding to the next binder to report its fold change of affinity.
[Q] Query: fold change of affinity; subject: dBBDu183H P61H / dBBDu072L (antibody, name in Kabat numbering, V domains shown, as m1, one VH change) VH: QVQLVESGGGLVQPGRSLRLSCAASGFTFSNAWMHWVRQAPGKGLEWVAQIKDKGNAYAAYYAHSVKGRFTISRDDSKNSIYLQMNSLKTEDTAVYYCHYVHYASASTVLPAFGVDAWGQGTTVTVSS VL: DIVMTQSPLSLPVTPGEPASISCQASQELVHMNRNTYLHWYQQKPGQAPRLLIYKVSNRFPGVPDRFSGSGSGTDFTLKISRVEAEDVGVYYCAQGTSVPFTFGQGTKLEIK
[A] 0.9
